Exercise: for every item that follows, state its recorded Fold change to WT CD80.
- measurementTarget: T1, human CTLA4 (huCTLA4), full-length, stably expressed on CHO cells (human, UniProt P16410 36-223)
- T1 construct: whole, on cells
- T1 sequence (P16410 36-223): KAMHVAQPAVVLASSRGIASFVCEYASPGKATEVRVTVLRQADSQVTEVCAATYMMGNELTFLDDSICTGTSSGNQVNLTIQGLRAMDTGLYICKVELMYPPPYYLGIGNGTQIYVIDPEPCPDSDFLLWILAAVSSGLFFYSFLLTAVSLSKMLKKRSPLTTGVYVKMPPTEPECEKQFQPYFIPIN
- experimentNotes: flow cytometry, CHO cells expressing huCTLA4; MFI against WT CD80 of the table
Expressed in fold, but write only the number.

The reported value for variant CD80 IgV-Fc E35D/M47V/N48K/V68M/A71G/L85M (Fc fusion, not shown: small tags and cut ends; a dimerising Fc or GST) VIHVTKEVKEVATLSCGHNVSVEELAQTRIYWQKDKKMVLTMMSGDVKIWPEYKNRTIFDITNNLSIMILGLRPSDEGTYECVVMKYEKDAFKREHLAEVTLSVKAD in terms of Fold change to WT CD80 is 9.5

The recorded Fold change to WT CD80 for entry variant CD80 IgV-Fc E24D/E35D/M47L/V68M/E95V/L97Q (Fc fusion, not shown: small tags and cut ends; a dimerising Fc or GST) VIHVTKEVKEVATLSCGHNVSVEDLAQTRIYWQKDKKMVLTMMSGDLNIWPEYKNRTIFDITNNLSIMILALRPSDEGTYECVVLKYEKDAFKRVHQAEVTLSVKAD equals 8.8

Documented Fold change to WT CD80 of variant CD80 IgV-Fc E35D/M47L/Y53F/V68M/A71G/K93R/E95V (Fc fusion, not shown: small tags and cut ends; a dimerising Fc or GST) VIHVTKEVKEVATLSCGHNVSVEELAQTRIYWQKDKKMVLTMMSGDLNIWPEFKNRTIFDITNNLSIMILGLRPSDEGTYECVVLKYEKDAFRRVHLAEVTLSVKAD : 9.1

Per the record, variant CD80 IgV-Fc E35D/T41S/D46E/M47I/V68M/K93R/E95V (Fc fusion, not shown: small tags and cut ends; a dimerising Fc or GST) VIHVTKEVKEVATLSCGHNVSVEELAQTRIYWQKDKKMVLSMMSGEINIWPEYKNRTIFDITNNLSIMILALRPSDEGTYECVVLKYEKDAFRRVHLAEVTLSVKAD has Fold change to WT CD80 of 10.5

// provenance: patent US20210130436A1
